Reported Log10LC50 by item:
tested on: NCI-H522; assay: NCI 60 human tumor cell line screen (SRB); type: cell-based; details: NCI-H522 (Non-Small Cell Lung Cancer); 48 h
attribute.measured: Log10LC50

| compound | measured.result |
| --- | --- |
| Cc1ncc(C(=O)N[C@@H](COC(F)F)C(=O)N[C@@H](COC(F)F)C(=O)N[C@@H](Cc2ccccc2)C(=O)[C@@]2(C)CO2)s1 [Example 1] | −4.15 |
| C[C@]1(C(=O)[C@H](Cc2ccccc2)NC(=O)[C@H](COC(F)F)NC(=O)[C@H](COC(F)F)NC(=O)CN2CCOCC2)CO1 [Example 26] | >−4.00 |
| CC(C)C[C@H](NC(=O)[C@H](Cc1ccccc1)NC(=O)[C@H](COC(F)F)NC(=O)CN1CCOCC1)C(=O)[C@@]1(C)CO1 [Example 25] | >−4.00 |
| C[C@]1(C(=O)[C@H](Cc2ccccc2)NC(=O)[C@H](Cc2ccccc2)NC(=O)[C@H](COC(F)F)NC(=O)CN2CCOCC2)CO1 [Example 29] | >−4.00 |
